- test_system: cyclophilin D (Homo sapiens (Human))
- Sequence (P30405 30-207, species assumed): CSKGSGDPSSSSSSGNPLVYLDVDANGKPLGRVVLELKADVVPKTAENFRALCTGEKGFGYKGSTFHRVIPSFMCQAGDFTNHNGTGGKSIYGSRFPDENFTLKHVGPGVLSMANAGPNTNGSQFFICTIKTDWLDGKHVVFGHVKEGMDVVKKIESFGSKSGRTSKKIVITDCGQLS
- assay: Functional peptidyl prolyl isomerase (PPIase) spectrophotometric assay, cyclophilin D
- Type: biochemical
- reported_conditions: second value of CypA/D cell; read-out: Ki CypD
pKi: −log10 of the molar value.
observed_property: pKi

Known results for compounds:
CC(C)[C@@H]1OC(=O)C(C)(C)/C=C/c2ccc3ccc(nc3c2)N(C)NC(=O)[C@@H]2CCCN(N2)C(=O)[C@H](CCC(=O)NCc2cccnc2)NC1=O [Compound (65)] | 7.66
C[C@@H]1NC(=O)[C@H](CC2CCCNC2)NC(=O)C(C)(C)/C=C/c2ccc3ccc(nc3c2)N(C)NC(=O)[C@@H]2CCCN(N2)C1=O (stereo partly drawn) [Compound (35)] | 5.96

(A) CC(C)[C@@H]1OC(=O)[C@@](C)(Cc2ccccc2)/C=C/c2ccc3ccc(nc3c2)N(C)NC(=O)[C@@H]2CCCN(N2)C(=O)[C@H](C)NC1=O [Compound (17)]
(B) CC(C)[C@@H]1OC(=O)C(C)(C)/C=C/c2ccc3ccc(nc3c2)N(C)NC(=O)[C@@H]2CCCN(N2)C(=O)[C@@H](Cc2ccccc2)NC1=O [Compound (77)]
## Task Smaller pKi value? Options are A and B Indicate your choice by writing its label.
## Result B

(A) CC(C)[C@@H]1OC(=O)C(C)(C)/C=C/c2ccc3ccc(nc3c2)N(CCCO)NC(=O)[C@@H]2CCCN(N2)C(=O)[C@H](C)NC1=O [Compound (7)]
(B) CC(C)[C@@H]1OC(=O)C(C)(C)/C=C/c2ccc3ccc(nc3c2)N(Cc2ccccc2)NC(=O)[C@@H]2CCCN(N2)C(=O)[C@H](C)NC1=O [Compound (9)]
## Task Out of A and B , name the one with the higher pKi. Indicate your choice by writing its label.
## Result B
